Answer each item with its documented Activity.
# System: Echinochloa crus-galli
# procedureSummary: Herbicidal activity against Echinochloa crus-galli (barnyard grass) at 480 g/hm2 postemergent application after 2 weeks
# Type: functional
Report the figure in % without appending any unit label.

Input: GET /values?readout=Activity&item= CCCOC(=O)/C=C/COC(=O)c1cc(Oc2ccc(C(F)(F)F)cc2Cl)ccc1[N+](=O)[O-]
Output: 70

Input: Value lookup for Activity; key = CC(C)OC(=O)/C=C/COC(=O)c1cc(Oc2ccc(C(F)(F)F)cc2Cl)ccc1[N+](=O)[O-]
Output: 80

Input: Consider the compound shown here: CCOC(=O)/C=C/COC(=O)c1cc(Oc2ccc(C(F)(F)F)cc2Cl)ccc1[N+](=O)[O-] What is its recorded Activity?
Output: 70

Input: Which Activity is listed for CCCCOC(=O)/C=C/COC(=O)c1cc(Oc2ccc(C(F)(F)F)cc2Cl)ccc1[N+](=O)[O-] ?
Output: 40

Input: Which Activity value is on record for COC(=O)/C=C/COC(=O)c1cc(Oc2ccc(C(F)(F)F)cc2Cl)ccc1[N+](=O)[O-] ?
Output: 80

====

# Tested on: Digitaria sanguinalis
# procedureSummary: Herbicidal activity against Digitaria sanguinalis (hairy crabgrass) at 200 g/hm2 postemergent application after 2 weeks
# Type: functional
endpoint: Activity (%)
Entry rule: numbers only, all in %.

Input: Give its Activity value. Item: CCOC(=O)/C=C(\C)COC(=O)c1cc(Oc2ccc(C(F)(F)F)cc2Cl)ccc1[N+](=O)[O-]
Output: 10

Input: Sample C/C(=C\C(=O)OC(C)(C)C)OC(=O)c1cc(Oc2ccc(C(F)(F)F)cc2Cl)ccc1[N+](=O)[O-] — what was its Activity?
Output: 15

Input: Reported Activity, molecule CCOC(=O)/C=C(\C)OC(=O)c1cc(Oc2ccc(C(F)(F)F)cc2Cl)ccc1Cl : ____
Output: 20

Input: Entry under review: O=C(O)c1cc(Oc2ccc(C(F)(F)F)cc2Cl)ccc1[N+](=O)[O-] . Reported Activity?
Output: 0

Input: Param item = C=C(COC(=O)c1cc(Oc2ccc(C(F)(F)F)cc2Cl)ccc1Cl)C(=O)OCCC ; retrieve measured Activity.
Output: 30

Input: Which Activity value is on record for CCC/C(=C\C(=O)OCC)OC(=O)c1cc(Oc2ccc(C(F)(F)F)cc2Cl)ccc1[N+](=O)[O-] ?
Output: 5

Input: So what does the record say about Activity for CCOC(=O)/C=C/COC(=O)c1cc(Oc2ccc(C(F)(F)F)cc2Cl)ccc1Cl ?
Output: 30

Input: Give its Activity value. Item: C=CCOC(=O)/C=C(\C)OC(=O)c1cc(Oc2ccc(C(F)(F)F)cc2Cl)ccc1[N+](=O)[O-]
Output: 5

Input: Recorded Activity of C=C(C(=O)OCC)C(C)OC(=O)c1cc(Oc2ccc(C(F)(F)F)cc2Cl)ccc1Cl (stereo unspecified) , please.
Output: 35

Input: For C=C(COC(=O)c1cc(Oc2ccc(C(F)(F)F)cc2Cl)ccc1Cl)C(=O)OCC , what is its reported Activity?
Output: 70

Input: Could you tell me which Activity is on file for COCCOC(=O)/C=C(\C)OC(=O)c1cc(Oc2ccc(C(F)(F)F)cc2Cl)ccc1[N+](=O)[O-] ?
Output: 35

====

# System: Digitaria sanguinalis
# procedureSummary: Herbicidal activity against Digitaria sanguinalis (hairy crabgrass) at 30 g/hm2 postemergent application after 2 weeks
# Assay type: functional
Exercise: for every item that follows, state its recorded Activity.
Provide only the numeric value, understood in %.

Input: Can you look up Activity on Digitaria sanguinalis for CCCCOC(=O)/C=C/COC(=O)c1cc(Oc2ccc(C(F)(F)F)cc2Cl)ccc1[N+](=O)[O-] ?
Output: 70

Input: # value lookup — system Digitaria sanguinalis, readout Activity, item CCCOC(=O)/C=C/COC(=O)c1cc(Oc2ccc(C(F)(F)F)cc2Cl)ccc1[N+](=O)[O-]
Output: 70

Input: Item: CC(C)OC(=O)/C=C/COC(=O)c1cc(Oc2ccc(C(F)(F)F)cc2Cl)ccc1[N+](=O)[O-] Test system: Digitaria sanguinalis Read-out: Activity Value: ?
Output: 80

Input: Recall the recorded Activity for COC(=O)/C=C/COC(=O)c1cc(Oc2ccc(C(F)(F)F)cc2Cl)ccc1[N+](=O)[O-] with Digitaria sanguinalis and state it.
Output: 20

Input: Which Activity is reported with Digitaria sanguinalis for this entry: CCOC(=O)/C=C/COC(=O)c1cc(Oc2ccc(C(F)(F)F)cc2Cl)ccc1[N+](=O)[O-] ?
Output: 60
